target.under.test: Cytochrome P450 2D6 (Homo sapiens) (UniProt P10635)
Sequence (P10635 whole entry, looked up): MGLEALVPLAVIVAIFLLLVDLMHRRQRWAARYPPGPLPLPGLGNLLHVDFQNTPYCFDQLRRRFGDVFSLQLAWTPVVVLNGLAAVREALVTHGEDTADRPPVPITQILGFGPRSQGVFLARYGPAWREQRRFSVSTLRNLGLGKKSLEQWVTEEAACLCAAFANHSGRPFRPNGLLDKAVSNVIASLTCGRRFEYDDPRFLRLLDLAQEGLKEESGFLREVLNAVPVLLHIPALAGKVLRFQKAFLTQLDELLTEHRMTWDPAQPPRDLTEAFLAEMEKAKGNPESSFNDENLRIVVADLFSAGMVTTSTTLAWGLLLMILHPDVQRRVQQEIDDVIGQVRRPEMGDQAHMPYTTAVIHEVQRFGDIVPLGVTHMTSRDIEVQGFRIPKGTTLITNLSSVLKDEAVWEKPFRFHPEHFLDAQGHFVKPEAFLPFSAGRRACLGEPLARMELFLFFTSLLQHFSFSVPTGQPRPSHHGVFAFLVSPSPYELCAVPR
procedure.summary: Cytochrome panel assay with activity outcomes
condition.notes: recombinant CYP, pro-luciferin dealkylation, luminescence, p450-cyp2d6; series mostly up to 57.1 µM
Hit rate of the full screen: of about 16,000 compounds, about 2,600 (16%) were called active. Another 20% or so got no clear call; they are omitted. Calls follow the shape of the dose curve; as a rule, active = well fitted curve in the direction sought with a large enough effect; inconclusive = small, poorly fitted or top-dose-only effect, or effect the other way; inactive = no such curve, though single readings can be large or run the other way. These entries were drawn from the full list.
Hi there, use one of these labels in your reply, thanks! active, inactive

[
  {
    "compound": "CCOc1cc(C)c(S(=O)(=O)Nc2ccc3cn[nH]c3c2)cc1C",
    "cat": "active"
  },
  {
    "compound": "COC(=O)c1sccc1NC(=O)c1cc(-c2cc(C)ccc2C)nc2ccccc12",
    "cat": "inactive"
  },
  {
    "compound": "Cc1ccc(C)c(S(=O)(=O)NC(C)C(=O)Nc2ccc(-c3nc4ccccc4s3)cc2)c1 (stereo not given)",
    "cat": "inactive"
  }
]

# next compound below
Query: What call does the record list for CCOC(=O)c1ccc(S(=O)(=O)Nc2ccc3cn[nH]c3c2)cc1 ?
Reply: active
